testSystem: T1, mouse RBPJ F92V, conserved core (residues 53-474) (mouse, UniProt P31266 53-474, F92V)
T1 construct: RBPJ (Rbpj), mouse, conserved core, residues 53-474, with F92V; Variant found in human AOS patients (human F66V), put into the mouse protein by mutagenesis; also called analogous to human F66V; source: pGEX-6P-1 plasmid, QuikChange mutagenesis
T1 sequence (P31266 53-474 F92V): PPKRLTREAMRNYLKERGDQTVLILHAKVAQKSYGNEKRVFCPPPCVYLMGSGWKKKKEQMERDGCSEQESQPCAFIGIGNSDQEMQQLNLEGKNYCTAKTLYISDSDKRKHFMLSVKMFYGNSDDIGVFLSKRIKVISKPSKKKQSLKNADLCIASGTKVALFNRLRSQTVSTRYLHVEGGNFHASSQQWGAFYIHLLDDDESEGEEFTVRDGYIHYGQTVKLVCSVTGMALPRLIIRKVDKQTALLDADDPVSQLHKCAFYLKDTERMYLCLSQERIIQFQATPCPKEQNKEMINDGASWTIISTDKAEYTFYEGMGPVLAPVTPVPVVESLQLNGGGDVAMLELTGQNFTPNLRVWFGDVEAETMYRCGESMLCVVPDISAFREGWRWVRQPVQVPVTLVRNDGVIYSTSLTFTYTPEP
method: ITC; MicroCal VP-ITC, 25 °C, 50 mM sodium phosphate pH 6.5, 150 mM NaCl; ligand (RAM peptide or SMT3-SHARP) in the syringe, RBPJ in the cell: 100 µM into 10 µM (R91G), 50 µM into 5 µM (F92V), 40 µM into 4 µM (S358R); 20 injections of 14 µL; 1-site binding model; mean and SD of triplicates
conditionSet: both partners purified
Entries and their measured Kd follow.
// note: answer is a bare numeric in µM

SMT3-SHARP 2776-2833, fusion protein with the region of the human SHARP co-repressor that binds RBPJ (domain or fragment, UniProt Q96T58 2776-2833, looked up, SHARP (SPEN), human, residues 2776-2833; not shown: SMT3, N-terminal, kept) RASANENSRFHPGSMPVIDDRPADAGSGAGLRVNTSEGVVLLSYSGQKTEGPQRISAK    0.0103

Note: attention shifts to another entry.
Record request: Kd value, item VLLSRKRRRQHGQLWFPEGFKVSEASKK (NOTCH1, human, RAM domain of the intracellular domain, residues 1754-1781; also called NICD; NICD1; source: synthetic peptide) 0.0115
